Give measured EC90 for each item. Keep answers brief.
# Test system: Hepatitis C virus
# experiment.description: Antiviral activity against Hepatitis C virus -infected in human HuH7 cells
# Assay type: functional, Hepacivirus hominis, Huh-7
# condition.context: Hepatitis C virus, Huh-7
Give bare numbers, in µM.

Example cases with answers are listed next.
> print(dat)
                                    compound  reported.measurement
 1  CCOc1nc(N)nc2c1ncn2[C@@H]1O[C@@H]2CO[P@](=O)(OC(C)C)O[C@H]2[C@@]1(C)F (stereo in doubt; 24a)                  1.37
 2  CCCCNc1nc(N)nc2c1ncn2[C@@H]1O[C@@H]2COP(=O)(OCC)O[C@H]2[C@@]1(C)F (single isomer, unassigned)                  48.1
 3  CCOc1nc(N)nc2c1ncn2[C@@H]1O[C@@H]2COP(=O)(Oc3ccccc3)O[C@H]2[C@@]1(C)F (some centres not stated)                  1.72
 4  COP1(=O)OC[C@H]2O[C@@H](n3cnc4c(NC5CCC5)nc(N)nc43)[C@](C)(F)[C@@H]2O1 (some centres not stated)                  1.56
 5  CCO[P@@]1(=O)OC[C@H]2O[C@@H](n3cnc4c(N5CCC5)nc(N)nc43)[C@](C)(F)[C@@H]2O1                  69.2
 6  COP1(=O)OC[C@H]2O[C@@H](n3cnc4c(N5CCC5)nc(N)nc43)[C@](C)(F)[C@@H]2O1 (some centres not stated)                  0.98
 7  C[C@@]1(F)[C@@H]2O[P@@](=O)(Oc3ccccc3)OC[C@H]2O[C@H]1n1cnc2c(N3CCC3)nc(N)nc21                   7.7
 8  CCCCNc1nc(N)nc2c1ncn2[C@@H]1O[C@@H]2COP(=O)(Oc3ccccc3)O[C@H]2[C@@]1(C)F (single isomer, unassigned)                  4.76
 9  CCCOc1nc(N)nc2c1ncn2[C@@H]1O[C@@H]2COP(=O)(OC)O[C@H]2[C@@]1(C)F (some centres not stated)                  0.83
10  C[C@@]1(F)[C@@H]2O[P@@](=O)(OC3CCC3)OC[C@H]2O[C@H]1n1cnc2c(N3CCC3)nc(N)nc21                   7.3

Your task in this section: give EC90 for each listed record.
1. COP1(=O)OC[C@H]2O[C@@H](n3cnc4c(NC5CCCC5)nc(N)nc43)[C@](C)(F)[C@@H]2O1 (some centres not stated)
2. C[C@@]1(F)[C@H](O)[C@@H](CO)O[C@H]1n1cnc2c(O)nc(N)nc21

1. 7.2
2. 69

----------
# experiment.description: Half life of the compound in simulated gastrointestinal fluid
# Assay type: physicochemical
# condition.context: read-out: Stability (converted)
Exercise: state measured half-life for each of the molecules provided.

Take a look at these entries with their results.
> print(dat)
                                   molecule  reported.metric  reported.measurement
1  COP1(=O)OC[C@H]2O[C@@H](n3cnc4c(N5CCC5)nc(N)nc43)[C@](C)(F)[C@@H]2O1 (some centres undefined)        half-life                > 20 h
2  CCCNc1nc(N)nc2c1ncn2[C@@H]1O[C@@H]2COP(=O)(OC)O[C@H]2[C@@]1(C)F (some centres undefined)        half-life                   4 h
3  CCOc1nc(N)nc2c1ncn2[C@@H]1O[C@@H]2CO[P@](=O)(OC(C)C)O[C@H]2[C@@]1(C)F (stereo in doubt; 24a)        half-life                > 20 h

Now let's try a different one.
Specify measured half-life for CCOc1nc(N)nc2c1ncn2[C@@H]1O[C@@H]2COP(=O)(OC)O[C@H]2[C@@]1(C)F (some centres undefined) . > 20 h

----------
# experiment.description: Half life in human plasma
# Assay type: ADME, cell-free
# condition.context: read-out: Stability (converted)
Can you tell me half-life for the items I'm about to list?
Answers are plain numbers, in h.

> print(dat)
                                   compound  reported.metric  unit.text  reported.measurement
1  CCCNc1nc(N)nc2c1ncn2[C@@H]1O[C@@H]2COP(=O)(OC)O[C@H]2[C@@]1(C)F (some centres undefined)        half-life          h                  15.7
2  COP1(=O)OC[C@H]2O[C@@H](n3cnc4c(N5CCC5)nc(N)nc43)[C@](C)(F)[C@@H]2O1 (some centres undefined)        half-life          h                  8.33

API: the following record is the query input.
Quote half-life reported for CCOc1nc(N)nc2c1ncn2[C@@H]1O[C@@H]2COP(=O)(OC)O[C@H]2[C@@]1(C)F (some centres undefined) please. 8.88

----------
# Test system: Hepatitis C virus
# experiment.description: Antiviral activity against Hepatitis C virus -infected in human HuH7 cells
# Format: functional, Hepacivirus hominis, Huh-7
# condition.context: Hepatitis C virus, Huh-7
reported.metric: EC90

# count of solved cases: 6
> print(dat)
                                   molecule  reported.metric  reported.measurement
1  CCCCNc1nc(N)nc2c1ncn2[C@@H]1O[C@@H]2COP(=O)(OC(C)C)O[C@H]2[C@@]1(C)F (single isomer, unassigned)             EC90               9.28 µM
2  CCOc1nc(N)nc2c1ncn2[C@@H]1O[C@@H]2COP(=O)(OC)O[C@H]2[C@@]1(C)F (some centres not stated)             EC90               0.41 µM
3  COP1(=O)OC[C@H]2O[C@@H](n3cnc4c(OCc5ccccc5)nc(N)nc43)[C@](C)(F)[C@@H]2O1 (some centres not stated)             EC90               5.05 µM
4  CO[P@@]1(=O)OC[C@H]2O[C@@H](n3cnc4c(O)nc(N)nc43)[C@](C)(F)[C@@H]2O1             EC90               11.8 µM
5  CC(C)O[P@@]1(=O)OC[C@H]2O[C@@H](n3cnc4c(N5CCC5)nc(N)nc43)[C@](C)(F)[C@@H]2O1             EC90               18.6 µM
6  CCCNc1nc(N)nc2c1ncn2[C@@H]1O[C@@H]2COP(=O)(OC)O[C@H]2[C@@]1(C)F (some centres not stated)             EC90               0.92 µM

Let me know recorded EC90 for CC(C)C(=O)OC[C@H]1O[C@@H](n2ccc(N)nc2=O)[C@](C)(F)[C@@H]1OC(=O)C(C)C [MERICITABINE] , thanks. 3.9 µM

----------
Would you mind telling me the reported AUC of each entry?
# System: Liver
# experiment.description: AUC (0 to 24 hrs) in rat liver
# Type: ADME, tissue-based
# Design: time < 24 hr
# condition.context: in vivo
A bare number is not enough; add the unit after it.

> print(dat)
                                   compound  target.under.test  reported.measurement
1  CCOc1nc(N)nc2c1ncn2[C@@H]1O[C@@H]2CO[P@](=O)(OC(C)C)O[C@H]2[C@@]1(C)F (stereo in doubt; 24a)              Liver          13234 ng·h/g

Read the next record carefully.
Entry CCOc1nc(N)nc2c1ncn2[C@@H]1O[C@@H]2COP(=O)(OC)O[C@H]2[C@@]1(C)F (some centres not stated) needs its AUC filled in; supply it. 8310 ng·h/g

----------
# Tested on: Rattus norvegicus
# experiment.description: AUC (0 to 24 hrs) in rat liver assessed as 2'-Deoxy-2'-alpha-F-2'-beta-C-methyl guanosine triphosphate level at 50 mg/kg, po
# Format: ADME, organism-based
# Design: time < 24 hr, dose 50 mg/kg, route oral
# condition.context: in vivo
I'd appreciate it if you could supply AUC values for the items below.
Give bare numbers, in ng·h/g.

> print(dat)
                                   compound  reported.measurement
1  CCOc1nc(N)nc2c1ncn2[C@@H]1O[C@@H]2COP(=O)(OC)O[C@H]2[C@@]1(C)F (some centres not stated)                  4090

Supply AUC value. Item: CCOc1nc(N)nc2c1ncn2[C@@H]1O[C@@H]2CO[P@](=O)(OC(C)C)O[C@H]2[C@@]1(C)F (stereo in doubt; 24a) 41893
